Target: Caspase-3 (Homo sapiens, UniProt P42574)
Sequence (P42574 29-175 limits assumed): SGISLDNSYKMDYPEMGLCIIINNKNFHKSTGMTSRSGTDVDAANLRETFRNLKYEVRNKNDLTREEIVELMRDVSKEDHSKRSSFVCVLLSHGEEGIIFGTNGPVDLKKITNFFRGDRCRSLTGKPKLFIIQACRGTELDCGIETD
Sequence (P42574 176-277 limits assumed): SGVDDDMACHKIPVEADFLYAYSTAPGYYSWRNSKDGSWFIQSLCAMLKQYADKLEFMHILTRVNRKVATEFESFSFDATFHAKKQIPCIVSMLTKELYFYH
Experiment: Inhibition of human recombinant caspase-3 using Ac-DEVD-AMC as substrate assessed as accumulation of AMC preincubated for 10 mins followed by substrate addition measured after 10 mins by fluorescence assay
pIC50: −log10 of the molar value.
measuredEndpoint: pIC50

In [3]: df
Out[3]:
                            smilesstructure                           systemundertest  result
0  COC[C@@H]1C[C@H](C(F)(F)F)CN1S(=O)(=O)c1ccc2c(c1)C(=O)C(=O)N2  Caspase-3 (Homo sapiens, UniProt P42574)    4.00
1  COC[C@@H]1C[C@@H](OCCOCCOCCOCCO)CN1S(=O)(=O)c1ccc2c(c1)C(=O)C(=O)N2  Caspase-3 (Homo sapiens, UniProt P42574)  < 3.30
2  COC[C@@H]1CC[C@@H](COC)N1S(=O)(=O)c1ccc2c(c1)C(=O)C(=O)N2  Caspase-3 (Homo sapiens, UniProt P42574)  < 3.30
3  COC[C@@H]1C[C@@H](C(F)(F)F)CN1S(=O)(=O)c1ccc2c(c1)C(=O)C(=O)N2  Caspase-3 (Homo sapiens, UniProt P42574)  < 3.30
4  CCCCN1C(=O)C(=O)c2cc(S(=O)(=O)N3C[C@@H](OCCOCCOCCOCCO)C[C@H]3COC)ccc21  Caspase-3 (Homo sapiens, UniProt P42574)  < 3.30
5  COC[C@@H]1C[C@H](OC)CN1S(=O)(=O)c1ccc2c(c1)C(=O)C(=O)N2  Caspase-3 (Homo sapiens, UniProt P42574)  < 3.30
6  COC[C@H]1CC[C@@H](COC)N1S(=O)(=O)c1ccc2c(c1)C(=O)C(=O)N2  Caspase-3 (Homo sapiens, UniProt P42574)  < 3.30
7  COC[C@@H]1C[C@@H](OC)CN1S(=O)(=O)c1ccc2c(c1)C(=O)C(=O)N2  Caspase-3 (Homo sapiens, UniProt P42574)  < 3.30
8  COC[C@@H]1C[C@H](OCCOCCOCCOCCO)CN1S(=O)(=O)c1ccc2c(c1)C(=O)C(=O)N2  Caspase-3 (Homo sapiens, UniProt P42574)  < 3.30

Numbers sourced from ChEMBL document CHEMBL2390880.
